Exercise: for every item that follows, state its recorded protein stability index.
test system: Saccharomyces cerevisiae; assay: protein stability index of tFT-peptide fusion (C-terminal peptide) (PSI (0-1 scale)); higher = more stable (slower turnover); conditions: genetic background: das1 deletion; temperature: 30 C
One number for each entry.

Here's what some known entries look like.
>>> print(df.to_string())
                                      chain             readout_kind  reading
0   SVLVCFLLRRAS [YJR087W C-terminal 12 aa]  protein stability index    0.506
1      AWIADLDHTVQP [CHS6 C-terminal 12 aa]  protein stability index    0.718
2  EAQLSSNDEPLP [YCR102W-A C-terminal 12 aa]  protein stability index     0.69
3      SNSLPKLKFHSM [OCA6 C-terminal 12 aa]  protein stability index    0.725
4   NNNIANDYMDID [YML053C C-terminal 12 aa]  protein stability index    0.727
5      SIDKWFFISGSV [IPP1 C-terminal 12 aa]  protein stability index    0.726

Give one value of protein stability index per listed sequence.
1. SLDKMAQQLGVE [YKR005C C-terminal 12 aa]
2. FFNISVSTKISF [YER175W-A C-terminal 12 aa]
3. LFSVLVALLALL [CRH1 C-terminal 12 aa]

A:
1: 0.698; 2: 0.68; 3: 0.661

# per-item lookup of protein stability index; items listed below
1. EELQGNARALNN [SNN1 C-terminal 12 aa]
2. ISKKVFGNKLHQ [MTM1 C-terminal 12 aa]

A:
1: 0.696; 2: 0.709

Can you give me protein stability index for all of these, one by one?
1. TMNCNNADDMLF [YGR190C C-terminal 12 aa]
2. QVTWHKHSPRIQ [YKL202W C-terminal 12 aa]
3. EEIRRENFRVIE [KTR7 C-terminal 12 aa]
4. IFKKIRLLLHVN [MCP1 C-terminal 12 aa]
5. KLKRAKRKGISE [IMP21 C-terminal 12 aa]
6. TASQLLEVQSKS [YGL039W C-terminal 12 aa]

A:
1: 0.699; 2: 0.713; 3: 0.713; 4: 0.615; 5: 0.693; 6: 0.68
